Target: human Fc (human)
Assay: ELISA, negative control
optical density: recorded values
Give the value, in units of OD, as a plain number.

binder="374_G12 (antibody, V domains shown) VH: EVQLLESGGGLVQPGGSLRLSCAASGFTFDDYGMNWVRQAPGKGLEWVSSINYNGGYKSYADSVKGRFTISRDNSKNTLYLQMNSLRAEDTAVYYCARSATWHDTHLDYWGQGTLVTVSS VL: DIQMTQSPSSLSASVGDRVTITCRASQSILTYVNWYQQKPGKAPKLVIYAATSLASGVPSRFSGSGSGTDFTLTISSLQPEDFATYYCQQSYNSPLTFGGGTKVEIK" unit_spec=OD value=0.214
binder="375_H01 (antibody, V domains shown) VH: EVQLLESGGGLVQPGGSLRLSCAASGFTFSDYSMNWVRQAPGKGLEWVAGINYNSGYTSYADSVKGRFTISRDNSKNTLYLQMNSLRAEDTAVYYCARAANWHDTHLDYWGQGTLVTVSS VL: DIQMTQSPSSLSASVGDRVTITCRASQSILTYLNWYQQKPGKAPKLLIYAATSRHSGVPSRFSGSGSGTDFTLTISSLQPEDFATYYCQQSYSNPLTFGGGTKVEIK" unit_spec=OD value=0.216
binder="365_F03 (antibody, V domains shown) VH: EVQLLESGGGLVQPGGSLRLSCAASGFTFDSYSMNWVRQAPGKGLEWVSSINYNGGYTSYADSVKGRFTISRDNSKNTLYLQMNSLRAEDTAVYYCARGANWHDTHLDYWGQGTLVTVSS VL: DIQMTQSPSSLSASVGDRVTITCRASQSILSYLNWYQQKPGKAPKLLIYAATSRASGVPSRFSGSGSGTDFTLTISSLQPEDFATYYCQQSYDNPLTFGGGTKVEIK" unit_spec=OD value=0.347
binder="368_E12 (antibody, V domains shown) VH: EVQLLESGGGLVQPGGSLRLSCAASGFTFSDYGMNWVRQAPGKGLEWVAGINYNGGYTSYADSVKGRFTISRDNSKNTLYLQMNSLRAEDTAVYYCARGANWHDTHLDYWGQGTLVTVSS VL: DIQMTQSPSSLSASVGDRVTITCRASQSIVSYVNWYQQKPGKAPKLVIYAVTSRASGVPSRFSGSGSGTDFTLTISSLQPEDFATYYCQQSYDSPLTFGGGTKVEIK" unit_spec=OD value=0.347
binder="376_E09 (antibody, V domains shown) VH: EVQLLESGGGLVQPGGSLRLSCAASGFTFDSYSMNWVRQAPGKGLEWVSGINYNSGYKSYADSVKGRFTISRDNSKNTLYLQMNSLRAEDTAVYYCARSATWHDTHLDYWGQGTLVTVSS VL: DIQMTQSPSSLSASVGDRVTITCRASQSILTYLNWYQQKPGKAPKLLIYAATSRHSGVPSRFSGSGSGTDFTLTISSLQPEDFATYYCQQSYDTPLTFGGGTKVEIK" unit_spec=OD value=0.246

Q) Using the record for 374_E06 (antibody, V domains shown) VH: EVQLLESGGGLVQPGGSLRLSCAASGFTFDSYSMNWVRQAPGKGLEWVSSINYNSGYKGYADSVKGRFTISRDNSKNTLYLQMNSLRAEDTAVYYCARSATWHDTHLDYWGQGTLVTVSS VL: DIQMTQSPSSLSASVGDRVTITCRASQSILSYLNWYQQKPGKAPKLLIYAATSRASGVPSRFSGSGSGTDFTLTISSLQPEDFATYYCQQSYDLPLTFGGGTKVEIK , report its optical density.
A) 0.191

Q) Using the record for 373_B05 (antibody, V domains shown) VH: EVQLLESGGGLVQPGGSLRLSCAASGFTFSDYSMNWVRQAPGKGLEWVSNINYNGGYKSYADSVKGRFTISRDNSKNTLYLQMNSLRAEDTAVYYCARGANWHDTALDYWGQGTLVTVSS VL: DIQMTQSPSSLSASVGDRVTITCRASQSIVTYLNWYQQKPGKAPKLVIYAATSRASGVPSRFSGSGSGTDFTLTISSLQPEDFATYYCQQSYSNPLTFGGGTKVEIK , report its optical density.
A) 0.184

Q) Using the record for 374_A12 (antibody, V domains shown) VH: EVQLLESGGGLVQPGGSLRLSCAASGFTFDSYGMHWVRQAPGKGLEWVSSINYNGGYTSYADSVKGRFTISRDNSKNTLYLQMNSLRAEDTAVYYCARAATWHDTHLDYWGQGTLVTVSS VL: DIQMTQSPSSLSASVGDRVTITCRASQSILTYLNWYQQKPGKAPKLLIYAATSRASGVPSRFSGSGSGTDFTLTISSLQPEDFATYYCQQSDSNPLTFGGGTKVEIK , report its optical density.
A) 0.308

Q) Using the record for 365_G05 (antibody, V domains shown) VH: EVQLLESGGGLVQPGGSLRLSCAASGFTFSSYGMNWVRQAPGKGLEWVSGINYNGGYKGYADSVKGRFTISRDNSKNTLYLQMNSLRAEDTAVYYCARGANWHDTALDYWGQGTLVTVSS VL: DIQMTQSPSSLSASVGDRVTITCRASQSILSYLNWYQQKPGKAPKLVIYAATSLASGVPSRFSGSGSGTDFTLTISSLQPEDFATYYCQQSYENPLTFGGGTKVEIK , report its optical density.
A) 0.319

Q) Using the record for 367_A10 (antibody, V domains shown) VH: EVQLLESGGGLVQPGGSLRLSCAASGFTFSSYGMNWVRQAPGKGLEWVAGINYNSGYTSYADSVKGRFTISRDNSKNTLYLQMNSLRAEDTAVYYCARGANWHDTHLDYWGQGTLVTVSS VL: DIQMTQSPSSLSASVGDRVTITCRASQSIITYVNWYQQKPGKAPKLLIYAATSLASGVPSRFSGSGSGTDFTLTISSLQPEDFATYYCQQSYDLPLTFGGGTKVEIK , report its optical density.
A) 0.315
